// Kd lookup, one value per entry
Biological target: feline FcRn complex (FcRn-α subunit and β-microglobulin), biotin labeled (feline)
Assay: SPR, pH 6
Number only, in nM; omit the unit.

>>> result_number("feline IgG1a T256S (antibody, part only; not given: Variable domains, not shown: another chain or arm of the molecule) constant: ASTTAPSVFPLAPSCGTTSGATVALACLVLGYFPEPVTVSWNSGALTSGVHTFPAVLQASGLYSLSSMVTVPSSRWLSDTFTCNVAHPPSNTKVDKTVRKTDHPPGPKPCDCPKCPPPEMLGGPSIFIFPPKPKDTLSISRSPEVTCLVVDLGPDDSDVQITWFVDNTQVYTAKTSPREEQFNSTYRVVSVLPILHQDWLKGKEFKCKVNSKSLPSPIERTISKAKGQPHEPQVYVLPPAQEELSRNKVSVTCLIKSFHPPDIAVEWEITGQPEPENNYRTTPPQLDSDGTYFVYSKLSVDRSHWQRGNTYTCSVSHEALHSHHTQKSLTQSPGK")
2140

Ask: Requested read-out: Kd. Entry: feline IgG1a G402R (antibody, part only; not given: Variable domains, not shown: another chain or arm of the molecule) constant: ASTTAPSVFPLAPSCGTTSGATVALACLVLGYFPEPVTVSWNSGALTSGVHTFPAVLQASGLYSLSSMVTVPSSRWLSDTFTCNVAHPPSNTKVDKTVRKTDHPPGPKPCDCPKCPPPEMLGGPSIFIFPPKPKDTLSISRTPEVTCLVVDLGPDDSDVQITWFVDNTQVYTAKTSPREEQFNSTYRVVSVLPILHQDWLKGKEFKCKVNSKSLPSPIERTISKAKGQPHEPQVYVLPPAQEELSRNKVSVTCLIKSFHPPDIAVEWEITGQPEPENNYRTTPPQLDSDRTYFVYSKLSVDRSHWQRGNTYTCSVSHEALHSHHTQKSLTQSPGK
Reply: 6.1
